- assay target: T1, SARS-CoV-2 S1 protein (SARS-CoV-2, UniProt P0DTC2 16-685)
- T1 construct: also called SARS-CoV-2 Spike Glycoprotein S1; S1 (subunit 1)
- experiment description: phage ELISA screen on S1, mean

binder	reading unit	ELISA(Avg)
2-4 (antibody, V domains shown, also called variant 2-4) VH: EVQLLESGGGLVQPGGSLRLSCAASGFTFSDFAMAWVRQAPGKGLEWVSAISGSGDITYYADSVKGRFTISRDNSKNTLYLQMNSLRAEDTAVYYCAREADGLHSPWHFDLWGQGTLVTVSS VL: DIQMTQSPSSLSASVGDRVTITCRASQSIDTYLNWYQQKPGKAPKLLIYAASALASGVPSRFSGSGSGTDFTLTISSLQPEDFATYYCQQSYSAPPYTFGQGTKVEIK	fold over background	15.5
2-12 (antibody, V domains shown, also called variant 2-12) VH: EVQLLESGGGLVQPGGSLRLSCAASGFTFSDYPMNWVRQAPGKGLEWVSTISGSGGITFYADSVKGRFTISRDNSKNTLYLQMNSLRAEDTAVYYCVRHDEYSFDYWGQGTLVTVSS VL: DIQMTQSPSSLSASVGDRVTITCRASQSIDNYLNWYQQKPGKAPKLLIYGVSALQSGVPSRFSGSGSGTDFTLTISSLQPEDFATYYCQQSHSAPPYFFGQGTKVEIK	fold over background	18.2
